# EXPERIMENT_DESCRIPTION: Transfection activity of compound was tested in lewis lung carcinoma (3LL) cells (Level of luciferase gene expression is expressed as mean of relative light units (RLU) per well)
# Type: functional, cell-based
# SETTINGS: Mus musculus
ENDPOINT_LABEL: RLU/well
# output: bare number, no unit

Entry C=C1CC[C@H](OC(=O)NCCCCN)C/C1=C/C=C1\CCC[C@]2(C)[C@@H]([C@H](C)CCCC(C)C)CC[C@@H]12.Cl ; RLU/well = 820000

Entry C=C1CC[C@H](OC(=O)NCCCCN)C/C1=C/C=C1\CCC[C@]2(C)[C@@H]([C@H](C)/C=C/[C@H](C)C(C)C)CC[C@@H]12.Cl ; RLU/well = 610000

Entry C=C1CC[C@H](OC(=O)NCC[N+](C)(C)C)C/C1=C/C=C1\CCC[C@]2(C)[C@@H]([C@H](C)CCCC(C)C)CC[C@@H]12.[I-] ; RLU/well = 5300

Entry C=C1CC[C@H](OC(=O)NCCN(CCN)CCN)C/C1=C/C=C1\CCC[C@]2(C)[C@@H]([C@H](C)/C=C/[C@H](C)C(C)C)CC[C@@H]12.Cl ; RLU/well = 590000

Entry C=C1CC[C@H](OC(=O)NCCN(C)C)C/C1=C/C=C1\CCC[C@]2(C)[C@@H]([C@H](C)/C=C/[C@H](C)C(C)C)CC[C@@H]12.Cl ; RLU/well = 800000
